Target: Prothrombin (Homo sapiens)
Assay: Binding affinity against alpha thrombin
Measure name: Ki (µM)
One number for each entry, in µM.

Solved entries:
Molecule | Ki (µM)
CC1(C)C2CC1[C@]1(C)OB(C(Cc3ccccc3)NC(=O)[C@@H]3CCCN3C(=O)[C@H](Cc3ccccc3)NC(=O)OCc3ccccc3)O[C@@H]1C2 (stereo partly drawn) | 0.018
COCCC[C@@H](NC(=O)[C@@H]1CCCN1C(=O)[C@@H](Cc1ccccc1)NC(=O)OCc1ccccc1)B1O[C@@H]2CC3CC(C3(C)C)[C@]2(C)O1 (stereo in doubt; 9a) | 0.007

API: the following record is the query input.
Please list Ki recorded for the molecule CC1(C)C2CC1[C@]1(C)OB(C(Cc3ccccc3)NC(=O)[C@@H]3CCCN3C(=O)[C@@H](NC(=O)OCc3ccccc3)C(c3ccccc3)c3ccccc3)O[C@@H]1C2 (stereo partly drawn)
0.13

----------
Biological target: Prothrombin (Homo sapiens, UniProt P00734)
Experiment: Binding affinity against gamma thrombin
Assignment: determine reported pKi for the given compounds.
One number for each entry, as −log10 of the molar value.

Compound | Meas value
CCC(C)(C)C(NC(=O)[C@@H]1CCCN1C(=O)[C@H](Cc1ccccc1)NC(=O)OCc1ccccc1)B1O[C@@H]2CC3CC(C3(C)C)[C@]2(C)O1 (stereo partly drawn) | 7.62
CCC(C)(C)C(NC(=O)[C@@H]1CCCN1C(=O)[C@@H](NC(=O)OCc1ccccc1)C(c1ccccc1)c1ccccc1)B1O[C@@H]2CC3CC(C3(C)C)[C@]2(C)O1 (stereo partly drawn) | 7.47

Consider the record given below.
# return pKi of CCCCCC(NC(=O)[C@@H]1CCCN1C(=O)[C@@H](NC(=O)OCc1ccccc1)C(c1ccccc1)c1ccccc1)B1O[C@@H]2CC3CC(C3(C)C)[C@]2(C)O1 (stereo partly drawn) (system: Prothrombin (Homo sapiens, UniProt P00734))
7.57

----------
Molecular target: Prothrombin (Homo sapiens)
Assay: Binding affinity against thrombin
Measure name: pKi
Answers are plain numbers, as −log10 of the molar value.

See these solved cases before continuing.
Compound | Meas value
COCCC[C@@H](NC(=O)[C@@H]1CCCN1C(=O)[C@@H](Cc1ccccc1)NC(=O)OCc1ccccc1)B1O[C@@H]2CC3CC(C3(C)C)[C@]2(C)O1 (stereo in doubt; 9a) | 8.15
Cc1ccc(CCC(NC(=O)[C@@H]2CCCN2C(=O)[C@H](Cc2ccccc2)NC(=O)OCc2ccccc2)B2O[C@@H]3CC4CC(C4(C)C)[C@]3(C)O2)cc1 (stereo partly specified) | 7.70
CC1(C)C2CC1[C@]1(C)OB(C(CCCBr)NC(=O)[C@@H]3CCCN3C(=O)[C@H](Cc3ccccc3)NC(=O)OCc3ccccc3)O[C@@H]1C2 (stereo in doubt; 12) | 8.15
COCCCC(NC(=O)[C@@H]1CCCN1C(=O)[C@@H](NC(=O)OCc1ccccc1)C(c1ccccc1)c1ccccc1)B1O[C@@H]2CC3CC(C3(C)C)[C@]2(C)O1 (stereo partly specified) | 8.52
COCCCC(NC(=O)[C@@H]1CCCN1C(=O)[C@H](Cc1ccccc1)NC(=O)OCc1ccccc1)B1O[C@@H]2CC3CC(C3(C)C)[C@]2(C)O1 (stereo partly specified) | 4.96

Here's the next entry for you.
Look up and report measured pKi (Prothrombin (Homo sapiens)) for the following compound: CC1(C)C2CC1[C@]1(C)OB(C(Cc3ccccc3)NC(=O)[C@@H]3CCCN3C(=O)[C@@H](NC(=O)OCc3ccccc3)C(c3ccccc3)c3ccccc3)O[C@@H]1C2 (stereo partly specified)
6.89
